Measured values drawn from patent US20230118795A1 for this set.

protocol-description: Pharmacokinetic test in mice, plasma concentration by LC/MS/MS
Assay type: in vivo
condition-set: mouse, po, male ICR mice, 30 mg/kg by gavage, CMC/TW80 carrier, n = 4, mean, read-out: AUC0-t
outcome-measure: AUC0-t (ng·h/mL)
Give bare numbers, in ng·h/mL.

Fill in the blank: the reported AUC0-t of C=CC(=O)N1CCN(c2nc(=O)n(-c3c(S(C)(=O)=O)ccnc3C(C)C)c3nc(-c4c(O)cccc4F)c(F)cc23)[C@@H](C)C1 (single isomer, unassigned) [Example 18A] is ____.
219

###

Tested on: NCI-H358 (KRAS^G12C mutation) cell
protocol-description: Cell assay of antiproliferative activity against NCI-H358 cell (Celltiter-Glo, 5 days)
Assay type: cell-based
condition-set: Homo sapiens, NCI-H358, 120 h, 5 days incubation
outcome-measure: pIC50
One number for each entry, as −log10 of the molar value.

Worked set:
{"compound": "C=CC(=O)N1CCN(c2nc(=O)n(-c3c(C(C)C)ccnc3S(C)(=O)=O)c3nc(-c4c(F)cccc4Cl)c(F)cc23)[C@@H](C)C1 [Example 28]", "value": 7.59}
{"compound": "C=CC(=O)N1C[C@H](C)N(c2nc(=O)n(-c3c(C4CCC4)cccc3S(C)(=O)=O)c3nc(-c4c(O)cccc4F)c(F)cc23)C[C@H]1C [Example 63A]", "value": 6.43}
{"compound": "C=CC(=O)N1CCN(c2nc(=O)n(-c3c(C(C)C)cncc3S(C)(=O)=O)c3nc(-c4c(O)cccc4F)c(F)cc23)[C@@H](C)C1 [Example 29]", "value": 7.28}
{"compound": "C=C(F)C(=O)N1CCN(c2nc(=O)n(-c3c(C(C)C)cccc3S(C)(=O)=O)c3nc(-c4c(O)cccc4F)c(F)cc23)[C@@H](C)C1 [Example 21]", "value": 5.92}
{"compound": "C=CC(=O)N1CCN(c2nc(=O)n(-c3c(C)cccc3S(=O)(=O)C(C)C)c3nc(-c4c(O)cccc4F)c(F)cc23)[C@@H](C)C1 [Example 4]", "value": 6.38}

Go through the items and report each one's pIC50.
1. C=C(F)C(=O)N1CCN(c2nc(=O)n(-c3c(C(C)C)cccc3S(C)(=O)=O)c3nc(-c4ccccc4Cl)c(F)cc23)[C@@H](C)C1 [Example 23]
2. C=CC(=O)N1C[C@H](C)N(c2nc(=O)n(-c3c(CC)cccc3S(C)(=O)=O)c3nc(-c4c(O)cccc4F)c(F)cc23)C[C@H]1C [Example 12]
3. C=CC(=O)N1CCN(c2nc(=O)n(-c3c(S(C)(=O)=O)ccnc3C)c3nc(-c4c(O)cccc4F)c(F)cc23)[C@@H](C)C1 [Example 2]
4. C=CC(=O)N1CCN(c2nc(=O)n(-c3c(C(C)C)ccnc3S(C)(=O)=O)c3nc(-c4cccc(F)c4Cl)c(F)cc23)[C@@H](C)C1 [Example 26]
5. C=CC(=O)N1CCN(c2nc(=O)n(-c3c(C(C)C)ccnc3S(C)(=O)=O)c3nc(-c4c(O)cccc4F)c(F)cc23)[C@@H](C)C1 [Example 16]
6. C=CC(=O)N1CCN(c2nc(=O)n(-c3c(C(C)C)ccnc3S(C)(=O)=O)c3nc(-c4ccccc4Cl)c(F)cc23)[C@@H](C)C1 [Example 20]
7. C=CC(=O)N1CCN(c2nc(=O)n(-c3c(C)ccnc3S(C)(=O)=O)c3nc(-c4c(O)cccc4F)c(F)cc23)[C@@H](C)C1 [Example 1]
8. C=CC(=O)N1CCN(c2nc(=O)n(-c3c(C)cccc3S(=O)(=O)N(C)C)c3nc(-c4c(O)cccc4F)c(F)cc23)[C@@H](C)C1 [Example 14]

[5.96, 7.39, 6.27, 7.74, 7.92, 7.64, 7.05, 6.44]

Go through the items and report each one's pIC50.
1. C=CC(=O)N1CCN(c2nc(=O)n(-c3cccnc3S(C)(=O)=O)c3nc(-c4c(O)cccc4F)c(F)cc23)CC1CC#N (stereo not drawn) [Example 58]
2. C=CC(=O)N1CCN(c2nc(=O)n(-c3c(Cl)cccc3S(C)(=O)=O)c3nc(-c4c(O)cccc4F)c(F)cc23)[C@@H](C)C1 [Example 8]

5.00
6.77
